- TARGET_OR_TEST_SYSTEM: EPHB1 (UniProt P54762)
- Sequence (P54762 whole entry, looked up): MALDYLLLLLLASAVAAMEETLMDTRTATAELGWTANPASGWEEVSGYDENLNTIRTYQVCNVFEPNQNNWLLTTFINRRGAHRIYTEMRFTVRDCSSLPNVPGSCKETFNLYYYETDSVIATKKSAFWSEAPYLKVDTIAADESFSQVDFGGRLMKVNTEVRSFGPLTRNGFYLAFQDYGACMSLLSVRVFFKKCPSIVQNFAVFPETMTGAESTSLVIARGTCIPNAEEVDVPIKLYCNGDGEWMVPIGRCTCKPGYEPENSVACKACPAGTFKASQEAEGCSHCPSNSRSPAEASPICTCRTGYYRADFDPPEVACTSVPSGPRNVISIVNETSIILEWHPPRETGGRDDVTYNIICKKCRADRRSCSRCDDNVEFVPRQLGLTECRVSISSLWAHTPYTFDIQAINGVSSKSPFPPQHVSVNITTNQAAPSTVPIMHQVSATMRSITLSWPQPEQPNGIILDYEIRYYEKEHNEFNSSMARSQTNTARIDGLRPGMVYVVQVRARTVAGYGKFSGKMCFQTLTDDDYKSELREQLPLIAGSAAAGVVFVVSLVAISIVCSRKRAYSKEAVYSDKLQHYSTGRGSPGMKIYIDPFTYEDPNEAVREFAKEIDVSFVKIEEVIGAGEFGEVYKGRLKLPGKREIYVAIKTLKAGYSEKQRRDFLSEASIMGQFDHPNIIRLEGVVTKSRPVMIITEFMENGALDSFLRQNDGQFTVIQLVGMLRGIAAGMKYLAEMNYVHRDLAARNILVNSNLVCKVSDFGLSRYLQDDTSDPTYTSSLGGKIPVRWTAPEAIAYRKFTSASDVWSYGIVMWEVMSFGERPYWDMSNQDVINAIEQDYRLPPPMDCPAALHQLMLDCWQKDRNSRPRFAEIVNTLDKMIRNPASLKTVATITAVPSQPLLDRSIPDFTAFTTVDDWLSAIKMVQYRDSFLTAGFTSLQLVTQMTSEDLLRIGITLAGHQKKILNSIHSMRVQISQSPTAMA
- ASSAY_INFO: phosphorylation enrichment, bacterial display (enrichment ratio); higher = better substrate or ligand; peptides without Tyr show the background;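 also: 11-residue human phosphosite peptides and single-mutation variants displayed on the E. coli surface, counted by deep sequencing, each peptide's frequency after selection divided by its frequency in the unselected input library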;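 also: frequency after pTyr selection over input frequency; kinase dosed for 20-30% of maximal phosphorylation in three min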
MEASURE: phosphorylation enrichment
Lab note: jot the number down without any unit.

- THPFPYLSLEI [MLH1_Y293_L292P]: 0.502

[ask] Determine its reported phosphorylation enrichment: TENAGYYFRVS
[reply] 0.491

[ask] Determine its reported phosphorylation enrichment: HKLSSYEYDFE [BTK_Y40_Y39S]
[reply] 0.822

[ask] Determine its reported phosphorylation enrichment: REIIAYQPFGK [PRKCG_Y529_P524R_YF]
[reply] 0.51
